Test system: M14 melanoma
Assay: NCI tumour cell line growth inhibition, 48 h
Measured TGI accompanies every entry in the list below.
Express the result in µM but write the number alone.

>  <compound>
Clc1ccc(CSC(Cn2ccnc2)c2ccc(Cl)cc2Cl)cc1 (stereo not given)

>  <uom>
µM

>  <reported result>
3.12

$$$$

Tell me the measured TGI of "COc1ccc2oc(=O)cc(C(c3ccc[nH]3)c3ccc[nH]3)c2c1" , please. 0.191

###

Test system: A549 NSCLC
Assay: NCI tumour cell line growth inhibition, 48 h; in the data active means GI50 below about 0.43 µM; inactive means the rest
Bench note: report the call from active, inactive

Worked set:
>  <compound>
Cc1nc(-c2cccc(Nc3nc(-c4ccc(Cl)cc4)cs3)c2)cs1

>  <class>
inactive

$$$$
>  <compound>
CCS(=O)(=O)N1CCC(C(C)n2c(C)c(C(=O)NCc3c(OC)cc(C)[nH]c3=O)c3ccccc32)CC1 (stereo not given)

>  <class>
inactive

$$$$
>  <compound>
CCN(CC)CCOCC[C@H]1CC[C@H]2[C@@H]3[C@H](C)Cc4cc(OS(N)(=O)=O)ccc4[C@H]3CC[C@]12C

>  <class>
inactive

$$$$
>  <compound>
FC(F)(F)Oc1cccc(-c2cnc3ccc(-c4ccncc4)nn23)c1

>  <class>
inactive

$$$$
>  <compound>
CC(=O)N[C@@H](Cc1ccc(OP(=O)(O)O)cc1)C(=O)N[C@H]1CCC(=O)N2CCC[C@@H](C(=O)NCc3ccc(Cl)cc3)N2C1=O

>  <class>
inactive

$$$$

Assay result, entry "C=CC[n+]1c(/C=C/C=C2\N(C)c3ccccc3C2(C)C)sc2ccc(OC)cc21" — outcome? active

Assay result, entry "FC(F)(F)c1nc(N2CCCC2)ncc1-c1nnnn1-c1ccc(Cl)cc1" — outcome? inactive

Assay result, entry COc1ccc(C2CC(c3cc(OC)c(OC)c(OC)c3)=NO2)cc1OCCCCOc1cc2c(cc1OC)C(=O)N1CCC[C@H]1C=N2 (stereo not given in full) — outcome? inactive

Assay result, entry "O=C1C(Cl)=C(Nc2cccc(Cl)c2)C(=O)N1Cc1ccccc1" — outcome? inactive

Assay result, entry "Cc1ccc([N+](=O)[O-])cc1NC(=O)Nc1cccc(F)c1" — outcome? inactive

Assay result, entry "COc1cc(C(=O)/C=C/c2c(C)n([O-])c3ccc(C)cc3[n+]2=O)cc(OC)c1OC" — outcome? inactive

Assay result, entry "COc1ccc2[nH]c(=O)c3c4ccccc4cn3c2c1" — outcome? inactive

###

Tested on: 786-0 renal
Assay: NCI tumour cell line growth inhibition, 48 h
Measured TGI accompanies every entry in the list below.
Express the result in µM but write the number alone.

Tell me the measured TGI of O=C(O)c1ccccc1NC(c1ccccc1)c1ccc2cccnc2c1O (stereo not drawn) , please. 20.1

###

Test system: HL-60(TB) leukemia
Assay: NCI tumour cell line growth inhibition, 48 h
Measured TGI accompanies every entry in the list below.

Example results:
>  <compound>
CC(=O)OC12/C(=N/O)CCCCCC1c1ccccc12 (stereo not given)

>  <TGI>
> 100 µM

$$$$
>  <compound>
COc1cc2c(/C=C3/C(=O)N(C)c4ccccc43)c(Cl)[nH]c2cc1C

>  <TGI>
0.666 µM

$$$$
>  <compound>
O=P1(O)C=CC2(CCCC2)O1

>  <TGI>
> 100 µM

$$$$

Tell me the measured TGI of CC(=O)OC1=c2ccccc2=C(O)C2C1C=NN2C(C)=O (stereo not given) , please. > 100 µM

Tell me the measured TGI of "COc1cc2c3c(n(CCCN)c(=O)c2cc1OC)-c1ccccc1C3=O" , please. > 100 µM

Tell me the measured TGI of "CCCCC[C@H](O)/C=C/[C@@H]1[C@@H](C/C=C\CCCC(=O)O)[C@@H](O)C[C@H]1O" , please. > 100 µM
